This collection of values is drawn from patent USRE48522.

target: HLA-B35 (human); assay: assembly assay: HLA-B35 stabilisation, T2-B35 lysate, W6/32 IP, IEF gel
C50 reference
# number only, unit µM dropped from output

Some solved cases for reference:
1. CPTENEPDL [Sur46-54 (Survivin46-54)] :: 20
2. EPDLAQCFF [Sur51-59 (Survivin51-59)] :: 13
3. CPTENEPDY (Analogue of survivin46-54 with the C-terminal L replaced by Y) [Sur46Y9] :: 4

Field: next binder
The binder listed as EPDLAQCFY (Analogue of survivin51-59 with the C-terminal F replaced by Y) [Sur51Y9] has a reported C50 of 1.5
